System: EKVX
Test: NCI tumour cell line growth inhibition, 48 h
Calls of active or inactive are those of the source. No stated cut-off is given here; in the data, active = GI50 up to about 1.1 µM and inactive = higher.

compound: C[C@]12CCC(=O)C=C1CC[C@@H]1[C@@H]2CC[C@]2(C)C(=O)/C(=C/c3ccc([N+](=O)[O-])cc3)C[C@@H]12
GI50: 17.1 µM (inactive)
--
compound: CN(C)Cc1cc(C(=O)/C=C/c2ccc([N+](=O)[O-])cc2)cc(CN(C)C)c1O
GI50: 12.8 µM (inactive)
--
compound: O=C(NNc1ccnc2cc(Cl)ccc12)/C(=C\c1ccccc1Cl)NC(=O)c1ccccc1
GI50: 31.8 µM (inactive)
--
compound: COc1nc(NC2OC(COC(C)=O)C(OC(C)=O)C(OC(C)=O)C2OC(C)=O)c(/N=C/C=N/c2c(NC3OC(COC(C)=O)C(OC(C)=O)C(OC(C)=O)C3OC(C)=O)nc(OC)[nH]c2=O)c(=O)[nH]1 (centres undefined)
GI50: > 100 µM (inactive)

----------
Tested on: CAKI-1
Test: NCI tumour cell line growth inhibition, 48 h
Activity calls are given as the source filed them. Rule as the data show it: active = GI50 up to about 1.1 µM and inactive = higher.

compound: CCOC(=O)c1s/c(=N\Nc2nc3ccccc3cc2C2OCCO2)n(Cc2ccccc2)c1C
GI50: > 100 µM (inactive)
//
compound: CCCCC1=C(C(=O)N2CCOCC2)C2(OCCO2)C1=O
GI50: 21.9 µM (inactive)
//
compound: C=CCc1cc(OC)c(O)c(C(=O)/C=C/c2ccc(OC)c(OC)c2)c1
GI50: 22.1 µM (inactive)
//
compound: CCCCCCCCCCCCCCCC(=O)NCC(COP(=O)([O-])OCC[N+](C)(C)C)OCC (configuration not stated)
GI50: 19.7 µM (inactive)
//
compound: S=C1c2cc(Cl)ccc2N=C(NC2CCCC2)C2CSCN12 (configuration not stated)
GI50: > 100 µM (inactive)
//
compound: CSc1nnc(COc2ccc(Cl)cc2)o1
GI50: > 100 µM (inactive)
//
compound: COP(=O)(OC)[C@@](O)(c1ccccc1)[C@@H](O)[C@H](O)c1ccccc1
GI50: > 100 µM (inactive)
//
compound: COc1cc(OC)c(/C=C\c2ccnc3ccccc23)c(OC)c1
GI50: 6.93 µM (inactive)
//
compound: Cc1cc2occ(S(=O)(=O)NC(=O)Nc3ccc(Cl)cc3)c(=O)c2c(=O)o1
GI50: > 100 µM (inactive)
//
compound: CCOC(=O)CSc1nc(-c2ccccc2)c(C#N)c(=O)[nH]1
GI50: > 100 µM (inactive)
//
compound: C=CCc1cc(-c2cc(CC=C)c(O)c(CN(CCCl)CCCl)c2)cc(CN(CCCl)CCCl)c1O
GI50: 8.22 µM (inactive)
//
compound: O=C(CC(C(=O)c1cccs1)c1cccs1)c1ccccc1Cl (configuration not stated)
GI50: > 100 µM (inactive)
//
compound: c1ccc(CSC(SCc2ccccc2)c2cccc3ccccc23)cc1
GI50: > 10 µM (inactive)
//
compound: CC(OP(=O)(O)O)C(N)C(=O)O (configuration not stated)
GI50: > 100 µM (inactive)
//
compound: CN1C(=O)CN=C(c2ccccc2F)c2cc(N=C=S)ccc21
GI50: 11.3 µM (inactive)
//
compound: Cc1cc(O)c(C(c2ccncc2)c2c(O)cc(C)[nH]c2=O)c(=O)[nH]1
GI50: 5.12 µM (inactive)
//
compound: Cn1cnc(CCc2ccccc2)n1
GI50: > 100 µM (inactive)
//
compound: NC(CCCCNC(=O)CNC(=O)OCc1ccccc1)C(=O)NC(CCCCNC(=O)CNC(=O)OCc1ccccc1)C(=O)NC(CCCCNC(=O)CNC(=O)OCc1ccccc1)C(=O)NC(CCCCNC(=O)CNC(=O)OCc1ccccc1)C(=O)NC(CCCCNC(=O)CNC(=O)OCc1ccccc1)C(=O)NC(CCCCNC(=O)CNC(=O)OCc1ccccc1)C(=O)O (configuration not stated)
GI50: > 75 µM (inactive)
//
compound: CCCCCCCCCCCCCCCC(=O)NC1CCc2cc(O)c(O)c(O)c2-c2ccc(SC)c(=O)cc21 (configuration not stated)
GI50: 13 µM (inactive)
//
compound: CC1(C)OP(=O)(O)CC1=O
GI50: > 100 µM (inactive)
//
compound: COC(=O)[C@@H]1COC(=O)N1
GI50: > 100 µM (inactive)
//
compound: CCOC(=O)CSc1c(C(=O)OCC)c(=O)n(-c2ccccc2)c(=S)n1-c1ccccc1
GI50: > 100 µM (inactive)
